Reference source: ChEMBL document CHEMBL1129245

measured.target: Substance-P receptor (Homo sapiens)
Sequence (P25103 whole entry): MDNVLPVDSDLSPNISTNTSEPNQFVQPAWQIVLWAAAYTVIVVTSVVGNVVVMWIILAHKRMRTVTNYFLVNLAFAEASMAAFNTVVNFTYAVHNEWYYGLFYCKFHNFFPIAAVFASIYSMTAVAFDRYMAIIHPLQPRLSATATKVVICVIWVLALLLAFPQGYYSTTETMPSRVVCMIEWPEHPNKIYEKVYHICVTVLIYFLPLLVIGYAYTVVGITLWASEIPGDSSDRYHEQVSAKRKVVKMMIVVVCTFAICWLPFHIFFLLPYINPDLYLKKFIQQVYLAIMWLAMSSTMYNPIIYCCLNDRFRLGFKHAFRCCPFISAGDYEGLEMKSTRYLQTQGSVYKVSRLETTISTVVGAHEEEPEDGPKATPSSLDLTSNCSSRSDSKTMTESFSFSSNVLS
procedure.text: Displacement of [125 I]-Tyr8 SP from the cloned human Tachykinin receptor 1 expressed in CHO cells
property.name: IC50 (nM)

Guide cases for IC50, answers given:
>>> quantitative_readout("FC(F)(F)c1cc(CO[C@H]2CCCN(Cc3ccco3)[C@H]2c2ccccc2)cc(C(F)(F)F)c1")
36
>>> quantitative_readout("O=c1[nH]nc(CN2CCC[C@H](OCc3cc(C(F)(F)F)cc(C(F)(F)F)c3)[C@@H]2c2ccccc2)[nH]1")
0.05
>>> quantitative_readout("FC(F)(F)c1cc(CO[C@H]2CCCN(Cc3nnc[nH]3)[C@H]2c2ccccc2)cc(C(F)(F)F)c1")
0.22
>>> quantitative_readout("FC(F)(F)c1cc(CO[C@H]2CCCN(Cc3nnn[nH]3)[C@H]2c2ccccc2)cc(C(F)(F)F)c1")
43
>>> quantitative_readout("FC(F)(F)c1cc(CO[C@H]2CCCN(Cc3cnc[nH]3)[C@H]2c2ccccc2)cc(C(F)(F)F)c1")
0.9

[P] FC(F)(F)c1cc(CO[C@H]2CCCN(Cc3n[nH]c(S)n3)[C@H]2c2ccccc2)cc(C(F)(F)F)c1
[Q] FC(F)(F)c1cc(CO[C@H]2CCCN(Cc3ncc[nH]3)[C@H]2c2ccccc2)cc(C(F)(F)F)c1
Qu. // pick larger IC50 from pair: P vs Q Your answer should be the label attached to the chosen record.
Ans. P
(P: 0.8 nM, Q: 0.53 nM)
